- ASSAY EXPLANATION: in vitro
- MEASUREMENT CONDITIONS: human, hepatocytes
What hepatocyte CLint was measured for each of the following?
Field: value (include unit after the number)

Value of measured hepatocyte CLint for the entry CCCCNC(=O)NS(=O)(=O)c1ccc(C)cc1 [TOLBUTAMIDE] : 4.68 µL/min/1e6 cells

Value of measured hepatocyte CLint for the entry CCc1cccc2cc(C(O)CNC(C)(C)C)oc12 (stereo not given) [BUFURALOL] : 51.3 µL/min/1e6 cells

Value of measured hepatocyte CLint for the entry CN(C)CCCN1c2ccccc2Sc2ccc(Cl)cc21 [CHLORPROMAZINE] : 82.5 µL/min/1e6 cells

Value of measured hepatocyte CLint for the entry O=C(O)Cc1ccccc1Nc1c(Cl)cccc1Cl [DICLOFENAC] : 22.8 µL/min/1e6 cells

Value of measured hepatocyte CLint for the entry CC(C)(C)NC[C@H](O)COc1nsnc1N1CCOCC1 [TIMOLOL] : 8.1 µL/min/1e6 cells

----------
- Species on record: Homo sapiens
- MEASUREMENT CONDITIONS: in vivo
- Description: Hepatic clearance in human
What CLH was measured for each of the following?
Output spec: scalar in mL/min/kg, unitless text.

Value of measured CLH for the entry O=C(O)Cc1ccccc1Nc1c(Cl)cccc1Cl : 4

Value of measured CLH for the entry CN1CCN(CCCN2c3ccccc3Sc3ccc(Cl)cc32)CC1 : 16.4

Value of measured CLH for the entry Cn1c(=O)c2[nH]cnc2n(C)c1=O.O : 1.29

Value of measured CLH for the entry O=c1n(CCCN2CCN(c3cccc(Cl)c3)CC2)nc2ccccn12 : 1.81

Value of measured CLH for the entry O=c1[nH]c2ccccc2n1CCCN1CCC(n2c(=O)[nH]c3cc(Cl)ccc32)CC1 : 9.1

----------
- ASSAY EXPLANATION: in vitro
- MEASUREMENT CONDITIONS: human, human hepatocytes
What fraction unbound was measured for each of the following?
Just the number.

Value of measured fraction unbound for the entry CCOc1ccc(NC(C)=O)cc1 : 0.977

Value of measured fraction unbound for the entry O=c1n(CCCN2CCN(c3cccc(Cl)c3)CC2)nc2ccccn12 : 0.98

Value of measured fraction unbound for the entry CN1CCN2c3ccccc3Cc3ccccc3C2C1 (centres undefined) : 0.839

Value of measured fraction unbound for the entry CC(C)NCC(O)COc1cccc2ccccc12 (centres undefined) : 0.915

Value of measured fraction unbound for the entry CCC1=C(C)CN(C(=O)NCCc2ccc(S(=O)(=O)NC(=O)N[C@H]3CC[C@H](C)CC3)cc2)C1=O [GLIMEPIRIDE] : 0.982

Value of measured fraction unbound for the entry Cc1cc(=O)n(-c2ccccc2)n1C [ANTIPYRINE] : 0.988

Value of measured fraction unbound for the entry Cn1c(=O)c2c(ncn2C)n(C)c1=O : 0.989

Value of measured fraction unbound for the entry CN1CCN(CCCN2c3ccccc3Sc3ccc(Cl)cc32)CC1 : 0.553

Value of measured fraction unbound for the entry C[C@]12C=CC(=O)C=C1CC[C@@H]1[C@@H]2[C@@H](O)C[C@@]2(C)[C@H]1CC[C@]2(O)C(=O)CO : 0.98

Value of measured fraction unbound for the entry O=c1[nH]c2ccccc2n1CCCN1CCC(n2c(=O)[nH]c3cc(Cl)ccc32)CC1 : 0.598

Value of measured fraction unbound for the entry CN(C)CCCN1c2ccccc2Sc2ccccc21 : 0.545

Value of measured fraction unbound for the entry CC(CN(C)C)CN1c2ccccc2CCc2ccccc21 (centres undefined) : 0.322

Value of measured fraction unbound for the entry CCCc1nn(C)c2c(=O)[nH]c(-c3cc(S(=O)(=O)N4CCN(C)CC4)ccc3OCC)nc12 : 0.962

Value of measured fraction unbound for the entry CN(C)CCCN1c2ccccc2CCc2ccc(Cl)cc21 : 0.186
